target: Mushroom tyrosinase (Agaricus bisporus, UniProt O42713+Q00024+C7FF04+C7FF05); assay: Inhibition of Agaricus bisporus tyrosinase using L-tyrosine as substrate preincubated with compound for 20 mins followed by substrate addition measured after 10 mins by absorbance based assay
Reported values of IC50 for individual entries
experimentalReadout: IC50

| recordSmiles | studySystem | recordedResult |
| --- | --- | --- |
| O=C(CCc1ccc(O)cc1O)c1ccc(Cl)cc1Cl | Mushroom tyrosinase (Agaricus bisporus, UniProt O42713+Q00024+C7FF04+C7FF05) | 0.119 µM |
| O=C(CCc1ccc(O)cc1O)c1ccc(O)cc1O | Mushroom tyrosinase (Agaricus bisporus, UniProt O42713+Q00024+C7FF04+C7FF05) | 0.05 µM |
| COc1ccc(C(=O)CCc2ccc(O)cc2O)cc1 | Mushroom tyrosinase (Agaricus bisporus, UniProt O42713+Q00024+C7FF04+C7FF05) | 0.089 µM |
| COc1ccc(C(=O)CCc2ccc(O)cc2)cc1 | Mushroom tyrosinase (Agaricus bisporus, UniProt O42713+Q00024+C7FF04+C7FF05) | > 10 µM |
| COc1cccc(CCC(=O)c2ccc(O)cc2O)c1OC | Mushroom tyrosinase (Agaricus bisporus, UniProt O42713+Q00024+C7FF04+C7FF05) | > 10 µM |
| COc1ccc(C(=O)CCc2ccc(O)cc2)c(O)c1 | Mushroom tyrosinase (Agaricus bisporus, UniProt O42713+Q00024+C7FF04+C7FF05) | > 10 µM |
| O=C(CCc1ccc(O)cc1O)c1ccccc1O | Mushroom tyrosinase (Agaricus bisporus, UniProt O42713+Q00024+C7FF04+C7FF05) | 0.069 µM |
| O=C(CCc1cccc(O)c1)c1ccc(O)cc1O | Mushroom tyrosinase (Agaricus bisporus, UniProt O42713+Q00024+C7FF04+C7FF05) | > 10 µM |
| COc1ccc(CCC(=O)c2ccc(O)cc2O)cc1O | Mushroom tyrosinase (Agaricus bisporus, UniProt O42713+Q00024+C7FF04+C7FF05) | > 10 µM |
| COc1ccc(C(=O)CCc2ccccc2O)cc1 | Mushroom tyrosinase (Agaricus bisporus, UniProt O42713+Q00024+C7FF04+C7FF05) | > 10 µM |
| COc1ccc(CCC(=O)c2ccc(O)cc2O)c(OC)c1OC | Mushroom tyrosinase (Agaricus bisporus, UniProt O42713+Q00024+C7FF04+C7FF05) | > 10 µM |
| COc1cc(CCC(=O)c2ccc(O)cc2O)cc(OC)c1OC | Mushroom tyrosinase (Agaricus bisporus, UniProt O42713+Q00024+C7FF04+C7FF05) | > 10 µM |
| O=C(CCc1ccc(O)cc1O)c1ccc(Br)cc1 | Mushroom tyrosinase (Agaricus bisporus, UniProt O42713+Q00024+C7FF04+C7FF05) | 0.11 µM |
